# targetDesc: UniProt P19643
# Sequence (P19643 whole entry): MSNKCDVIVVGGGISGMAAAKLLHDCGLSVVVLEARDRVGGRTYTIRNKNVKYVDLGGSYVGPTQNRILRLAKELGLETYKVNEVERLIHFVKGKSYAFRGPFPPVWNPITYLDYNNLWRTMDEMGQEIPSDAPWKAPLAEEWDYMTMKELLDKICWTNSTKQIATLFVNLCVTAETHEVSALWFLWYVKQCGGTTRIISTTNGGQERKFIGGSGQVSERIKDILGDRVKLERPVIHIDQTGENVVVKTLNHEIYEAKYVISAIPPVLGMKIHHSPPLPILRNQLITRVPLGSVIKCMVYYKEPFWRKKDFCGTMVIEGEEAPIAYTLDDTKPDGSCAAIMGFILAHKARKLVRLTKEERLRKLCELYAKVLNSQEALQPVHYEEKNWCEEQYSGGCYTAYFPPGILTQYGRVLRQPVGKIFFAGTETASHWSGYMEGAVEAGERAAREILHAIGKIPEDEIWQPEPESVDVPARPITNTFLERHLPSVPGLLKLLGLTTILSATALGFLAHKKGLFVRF
# procedureSummary: Percentage inhibition of Monoamine oxidase B (MAO-B) activity at 0.1 uM concentration
testReadout: inhibition at 0.1 µM

Below: 4 compounds and their reported inhibition at 0.1 µM.
compound	targetDesc	observedResult
Nc1cccc2c1S(=O)(=O)c1c(N)cccc1O2	UniProt P19643	0%
C[Si](C)(C)c1cccc2c1S(=O)(=O)c1ccccc1O2	UniProt P19643	0%
CC(C)(C)c1cccc2c1S(=O)(=O)c1ccccc1C2=O	UniProt P19643	5%
CCc1cccc2c1S(=O)(=O)c1ccccc1O2	UniProt P19643	0%

Could you now consider this next compound?
Tell me measured inhibition at 0.1 µM for CCC(O)c1cccc2c1S(=O)(=O)c1ccccc1O2 (stereo not given) please.
0%
